# Tested on: Klebsiella pneumoniae
Doc: threshold 9 µg/mL (exclusive). Items with MIC beneath it return Satisfied; others return Not satisfied.

Solved cases below.
Is it true that MIC reported for Cc1nnc(SCC2=C(C(=O)O)N3C(=O)C(NC(=O)[C@H](NC(=O)c4c(O)cc(O)cc4O)c4ccc(O)cc4)C3SC2)s1 (stereo partly shown) [Example 8] is less than 9 µg/mL?
Not satisfied

Is it true that MIC reported for O=C(O)C1=C(Cl)CSC2C(NC(=O)[C@H](NC(=O)c3cccc(O)c3O)c3ccccc3)C(=O)N12 (stereo partly shown) [Example 18] is less than 9 µg/mL?
Satisfied

Is it true that MIC reported for Cc1nnc(SCC2=C(C(=O)O)N3C(=O)C(NC(=O)[C@H](NC(=O)c4cc(O)c(O)c(O)c4O)c4ccc(O)cc4)C3SC2)s1 (stereo partly shown) [Example 14] is less than 9 µg/mL?
Satisfied

Others:
Is it true that MIC reported for Cn1nnnc1SCC1=C(C(=O)O)N2C(=O)C(NC(=O)[C@H](NC(=O)c3cc(O)cc(O)c3)c3ccc(O)cc3)C2SC1 (stereo partly shown) [Example 16] is less than 9 µg/mL?
Not satisfied

Is it true that MIC reported for Cn1nnnc1SCC1=C(C(=O)O)N2C(=O)C(NC(=O)[C@H](NC(=O)c3ccc(O)cc3O)c3ccc(O)cc3)C2SC1 (stereo partly shown) [Example 17] is less than 9 µg/mL?
Not satisfied

Is it true that MIC reported for Cn1nnnc1SCC1=C(C(=O)O)N2C(=O)C(NC(=O)[C@H](NC(=O)c3cccc(O)c3O)c3ccc(O)cc3)C2SC1 (stereo partly shown) [Example 3] is less than 9 µg/mL?
Satisfied

* * *

# run_description: Titration (pKa)
# Format: physicochemical
# run_parameters: 66% dmf-34% h2o, titration (66% DMF-34% H2O); first pKa; read-out: pKa (first value)
quantity_kind: pKa

Could you share which pKa value was measured for O=C(O)C1=C(Cl)CSC2C(NC(=O)[C@H](NC(=O)c3cccc(O)c3O)c3ccccc3)C(=O)N12 (stereo partly drawn) ?
4.55

Could you share which pKa value was measured for Cn1nnnc1SCC1=C(C(=O)O)N2C(=O)C(NC(=O)[C@H](NC(=O)c3cc(O)ccc3O)c3ccc(O)cc3)C2SC1 (stereo partly drawn) ?
5.08

Continue with the next molecule.
Could you share which pKa value was measured for Cc1nnc(SCC2=C(C(=O)O)N3C(=O)C(NC(=O)[C@H](NC(=O)c4c(O)cccc4O)c4ccc(O)cc4)C3SC2)s1 (stereo partly drawn) ?
5.2

* * *

# Test system: Klebsiella pneumoniae
quantity_kind: MIC (µg/mL)
The reply should be a number in µg/mL, with the unit left off.

Could you share which MIC value was measured for Cc1nnc(SCC2=C(C(=O)O)N3C(=O)C(NC(=O)[C@H](NC(=O)c4ccc(N)c(N)c4)c4ccc(O)cc4)C3SC2)s1 (stereo partly drawn) ?
14.8

Could you share which MIC value was measured for CC(=O)OCC1=C(C(=O)O)N2C(=O)C(NC(=O)C(NC(=O)c3cccc(O)c3O)c3ccccc3)C2SC1 (stereo not drawn) ?
7.4

Could you share which MIC value was measured for Cc1nnc(SCC2=C(C(=O)O)N3C(=O)C(NC(=O)[C@H](NC(=O)c4ccc(O)cc4)c4ccc(O)cc4)C3SC2)s1 (stereo partly drawn) ?
29.5

Could you share which MIC value was measured for Cn1nnnc1SCC1=C(C(=O)O)N2C(=O)C(NC(=O)[C@H](NC(=O)c3ccc(O)c(O)c3)c3ccc(O)cc3)C2SC1 (stereo partly drawn) ?
0.8

Others:
Could you share which MIC value was measured for NC(=O)OCC1=C(C(=O)O)N2C(=O)C(NC(=O)C(NC(=O)c3cccc(O)c3O)c3ccccc3)C2SC1 (stereo not drawn) ?
6.5

Could you share which MIC value was measured for Cn1c(SCC2=C(C(=O)O)N3C(=O)C(NC(=O)[C@H](NC(=O)c4cccc(O)c4O)c4ccc(O)cc4)C3SC2)nnc(O)c1=O (stereo partly drawn) ?
3.9

* * *

# run_description: Titration (pKa)
# Type: physicochemical
# run_parameters: 66% dmf-34% h2o, titration (66% DMF-34% H2O); first pKa; read-out: pKa (first value)
quantity_kind: pKa
Lab note: record just the number, no unit beside it.

Could you share which pKa value was measured for NC(=O)OCC1=C(C(=O)O)N2C(=O)C(NC(=O)C(NC(=O)c3cccc(O)c3O)c3ccccc3)C2SC1 (stereo not shown) ?
5.15

Could you share which pKa value was measured for Cn1nnnc1SCC1=C(C(=O)O)N2C(=O)C(NC(=O)[C@H](NC(=O)c3ccc(O)c(O)c3)c3ccc(O)cc3)C2SC1 (stereo partly shown) ?
4.1

Could you share which pKa value was measured for Cn1nnnc1SCC1=C(C(=O)O)N2C(=O)C(NC(=O)[C@H](NC(=O)c3cc(O)cc(O)c3)c3ccc(O)cc3)C2SC1 (stereo partly shown) ?
5.22

Continue with the next molecule.
Could you share which pKa value was measured for Cn1nnnc1SCC1=C(C(=O)O)N2C(=O)C(NC(=O)[C@H](NC(=O)c3cccc(O)c3O)c3ccccc3)C2SC1 (stereo partly shown) ?
5.31

* * *

# System: Serratia marcescens
quantity_kind: MIC (µg/mL)
The reply should be a number in µg/mL, with the unit left off.

Please state recorded MIC (tested on Serratia marcescens) of Cc1nnc(SCC2=C(C(=O)O)N3C(=O)C(NC(=O)[C@H](NC(=O)c4ccc(O)c(Cl)c4)c4ccc(O)cc4)C3SC2)s1 (some centres unmarked) [Example 11]
80

Others:
Please state recorded MIC (tested on Serratia marcescens) of Cn1nnnc1SCC1=C(C(=O)O)N2C(=O)C(NC(=O)[C@H](NC(=O)c3cccc(O)c3O)c3ccc(O)cc3)C2SC1 (some centres unmarked) [Example 3]
80

* * *

Quick list: MIC per entry.
# System: Serratia marcescens

Examples with their reported MIC follow.
Please state recorded MIC (tested on Serratia marcescens) of Cc1nnc(SCC2=C(C(=O)O)N3C(=O)C(NC(=O)[C@H](NC(=O)c4cc(O)c(O)c(O)c4O)c4ccc(O)cc4)C3SC2)s1 (stereo partly drawn) [Example 14]
> 200 µg/mL

Please state recorded MIC (tested on Serratia marcescens) of Cn1nnnc1SCC1=C(C(=O)O)N2C(=O)C(NC(=O)[C@H](NC(=O)c3cc(O)ccc3O)c3ccc(O)cc3)C2SC1 (stereo partly drawn) [Example 15]
> 200 µg/mL

Continue with the next compound.
Please state recorded MIC (tested on Serratia marcescens) of Cc1nnc(SCC2=C(C(=O)O)N3C(=O)C(NC(=O)[C@H](NC(=O)c4ccc(O)c(O)c4O)c4ccc(O)cc4)C3SC2)s1 (stereo partly drawn) [Example 7]
> 200 µg/mL
